Hey, just so you know, these numbers are from ChEMBL document CHEMBL3108665.

- Procedure Text: Aqueous solubility of the compound
- Assay type: physicochemical
Assay Readout: solubility

Could you tell me which solubility is on file for `CCOC(=O)N1CC[C@@H]2[C@H](C[C@H]3C(=O)O[C@H](C)[C@H]3[C@H]2/C=C/c2ccc(-c3cccc(F)c3)cn2)C1` ?
< 2 µM

* * *

- Procedure Text: AUC (0 to 6 hrs) in rat plasma at 10 mg/kg, po
- Assay type: ADME, organism-based
- Design: time < 6 hr, dose 10 mg/kg, route oral
Assay Readout: AUC(0-t) at 6 h (ng·h/mL)
All answers are understood in ng·h/mL, so give the number only.

Could you tell me which AUC(0-t) at 6 h is on file for `CCOC(=O)N[C@@H]1CC[C@@H]2[C@@H](C1)C[C@H]1C(=O)O[C@H](C)[C@H]1[C@H]2/C=C/c1ccc(-c2cccc(F)c2)cn1` ?
3060

// same read-out, input: `CC(=O)NC[C@@H]1CC[C@@H]2[C@@H](C1)C[C@H]1C(=O)O[C@H](C)[C@H]1[C@H]2/C=C/c1ccc(-c2cccc(F)c2)cn1`
3810

// same read-out, input: `C[C@H]1OC(=O)[C@@H]2C[C@@H]3C[C@H](CNC(=O)C4CCNCC4)CC[C@H]3[C@H](/C=C/c3ccc(-c4cccc(F)c4)cn3)[C@H]12`
5

// same read-out, input: `C[C@H]1OC(=O)[C@@H]2C[C@@H]3C[C@H](CO)CC[C@H]3[C@H](/C=C/c3ccc(-c4cccc(F)c4)cn3)[C@H]12`
2670

// same read-out, input: `CCC(=O)NC[C@@H]1CC[C@@H]2[C@@H](C1)C[C@H]1C(=O)O[C@H](C)[C@H]1[C@H]2/C=C/c1ccc(-c2cccc(F)c2)cn1`
7730

// same read-out, input: `CCOC(=O)NC[C@@H]1CC[C@@H]2[C@@H](C1)C[C@H]1C(=O)O[C@H](C)[C@H]1[C@H]2/C=C/c1ccc(-c2cccc(F)c2)cn1`
1210

// same read-out, input: `COC(=O)NC[C@@H]1CC[C@@H]2[C@@H](C1)C[C@H]1C(=O)O[C@H](C)[C@H]1[C@H]2/C=C/c1ccc(-c2cccc(F)c2)cn1`
4860

// same read-out, input: `CCNC(=O)NC[C@@H]1CC[C@@H]2[C@@H](C1)C[C@H]1C(=O)O[C@H](C)[C@H]1[C@H]2/C=C/c1ccc(-c2cccc(F)c2)cn1`
567

// same read-out, input: `C[C@H]1OC(=O)[C@@H]2C[C@@H]3C[C@H](CNS(C)(=O)=O)CC[C@H]3[C@H](/C=C/c3ccc(-c4cccc(F)c4)cn3)[C@H]12`
7760

// same read-out, input: `CCOC(=O)N[C@@H]1CC[C@@H]2[C@@H](C1)C[C@@]1(O)C(=O)O[C@H](C)[C@H]1[C@H]2/C=C/c1ccc(-c2cccc(F)c2)cn1`
7430

* * *

- Assay Target: Proteinase-activated receptor 1 (Homo sapiens, UniProt P25116)
- Sequence (P25116 whole entry): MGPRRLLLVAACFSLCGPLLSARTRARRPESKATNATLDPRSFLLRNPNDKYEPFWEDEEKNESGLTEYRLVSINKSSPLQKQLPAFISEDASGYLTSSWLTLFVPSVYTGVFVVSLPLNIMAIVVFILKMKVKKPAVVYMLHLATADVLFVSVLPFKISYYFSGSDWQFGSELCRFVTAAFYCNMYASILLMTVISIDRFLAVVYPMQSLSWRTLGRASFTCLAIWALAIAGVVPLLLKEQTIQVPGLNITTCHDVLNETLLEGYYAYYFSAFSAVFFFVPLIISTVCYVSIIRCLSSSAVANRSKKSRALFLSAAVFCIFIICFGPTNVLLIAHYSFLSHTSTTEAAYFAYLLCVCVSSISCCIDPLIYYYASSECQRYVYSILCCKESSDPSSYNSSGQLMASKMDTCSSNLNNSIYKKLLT
- Procedure Text: Displacement of [3H]haTRAP from PAR-1 isolated from human platelets by liquid scintillation counting analysis
Assay Readout: log10 of Ki (log10 of the value in nM)
All values: log10 Ki [nM].

Give the reported log10 of Ki for `C[C@H](N)C(=O)NC[C@@H]1CC[C@@H]2[C@@H](C1)C[C@H]1C(=O)O[C@H](C)[C@H]1[C@H]2/C=C/c1ccc(-c2cccc(F)c2)cn1` (system: Proteinase-activated receptor 1 (Homo sapiens, UniProt P25116)).
1.51

// same read-out, input: `CCNC(=O)[C@@H]1CC[C@@H]2[C@@H](C1)C[C@H]1C(=O)O[C@H](C)[C@H]1[C@H]2/C=C/c1ccc(-c2cccc(C(F)(F)F)c2)cn1`
1.54

// same read-out, input: `COC(=O)NC[C@@H]1CC[C@@H]2[C@@H](C1)C[C@H]1C(=O)O[C@H](C)[C@H]1[C@H]2/C=C/c1ccc(-c2cccc(F)c2)cn1`
0.70

// same read-out, input: `CCOC(=O)N[C@@H]1CC[C@@H]2[C@@H](C1)C[C@@]1(O)C(=O)O[C@H](C)[C@H]1[C@H]2/C=C/c1ccc(-c2cccc(F)c2)cn1`
1.29

// same read-out, input: `CCNC(=O)NC[C@@H]1CC[C@@H]2[C@@H](C1)C[C@H]1C(=O)O[C@H](C)[C@H]1[C@H]2/C=C/c1ccc(-c2cccc(F)c2)cn1`
1.11

// same read-out, input: `C[C@H]1OC(=O)[C@@H]2C[C@@H]3C[C@H](C(=O)N4CC[C@H](O)C4)CC[C@H]3[C@H](/C=C/c3ccc(-c4cccc(C(F)(F)F)c4)cn3)[C@H]12`
2.58
